Test system: K562
Experiment: NCI tumour cell line growth inhibition, 48 h
Calls of active or inactive are those of the source. No stated cut-off is given here; in the data, active = GI50 up to about 1.1 µM and inactive = higher.
Respond only with the outcome that fits, drawn from TRUE for active, FALSE for inactive

## Input Short answer needed: outcome of this test for O=C1c2ccccc2C(=O)c2c(NCCNC(=O)C3CCCN3)ccc(NCCNC(=O)C3CCCN3)c21 (stereo not drawn) ?
## Output FALSE

## Input What did the test return for CC(C)=CCC/C(C)=C/Cc1cc(/C=C/c2cc(O)c(CC=C(C)C)c(O)c2)cc(O)c1O [MAPPAIN] ?
## Output FALSE

## Input Record lookup: outcome of this test for COc1cc2c[n+]3c4c(c2c(OC)c1OC)CCCC4CC3 (stereo not drawn) ?
## Output FALSE

## Input Any idea what this test logged for "c1ccc(C(C2=Nc3cccc4cccc(c34)N2)c2ccccc2)cc1" ?
## Output FALSE

## Input Identify the outcome logged in this assay for the compound shown: CC1CC(=O)N(N(C)C)C2(C#N)C(=O)N=C(N)C12C#N (stereo not drawn)
## Output FALSE

## Input Could you check what this test reported for "COc1ccc(NC(=O)CC/C(CC(=O)c2ccco2)=N/Nc2ccc([N+](=O)[O-])cc2[N+](=O)[O-])cc1" ?
## Output FALSE

## Input Assay outcome for "CC[C@](O)(CC(=O)O[C@H]1C(=O)O[C@@H]2C[C@H]3C(C)=CC(=O)[C@@H](O)[C@]3(C)[C@H]3[C@@]4(O)OC[C@]32[C@@H]1[C@@H](C)[C@H]4O)C(C)C" : what was it?
## Output TRUE

## Input What classification did "O=C(/N=N/c1ccc(Cl)cc1Cl)NNc1ccc(Cl)cc1Cl" end up with in this test?
## Output FALSE

* * *

System: HT-29
Test: NCI tumour cell line growth inhibition, 48 h
Calls of active or inactive are those of the source. Cut-off read from the data, not from the text of the source: active = GI50 up to about 1.1 µM and inactive = higher.
Choose the fitting class; nothing outside active, inactive is accepted.

## Input # fetch the recorded call for "CCOC(=O)Cn1c(=O)c2nc(SC)sc2n(-c2ccc(C)cc2)c1=S" here
## Output inactive

## Input Test call for this compound, please: "CC(C)(C)c1cc(C(C)(C)C)c2sc(=O)oc2c1O"
## Output inactive

## Input Check the results log: what was the call for "CCCCCCOc1ccc(C(=O)NOCc2ccccc2)cc1" ?
## Output inactive

## Input Assay outcome for "COP(=O)(OC)[C@@](O)(c1ccccc1)[C@@H](O)[C@@H](O)c1ccccc1" : what was it?
## Output inactive

## Input Recorded test call requested for "Cc1cccc(N2C(=O)C(Cl)=C(Cl)C2=O)c1"
## Output inactive

## Input Give the logged outcome of this assay for the following compound: "N#Cc1c(O)cc(=O)n2c1[nH]c1ccccc12"
## Output inactive

## Input Test call for this compound, please: "COc1ccc(N2CCN(c3ccc4c(c3)NCC(=O)N4)CC2)cc1"
## Output inactive

## Input // param item: CC(=O)OC12OC(C)(C3C(=O)N(c4ccccc4)C(=O)C31)N(c1ccccc1)C2=O (configuration not stated) ; yields the recorded call
## Output inactive

## Input Which outcome was entered for the compound "O=C(c1ccccc1)c1ccc2c(c1)NC(=O)c1ccccc1SSc1ccccc1C(=O)N2" in this test?
## Output inactive

## Input Test call for this compound, please: "O=c1[nH]/c(=C/c2ccc(OCc3ccccc3)cn2)c(=O)[nH]/c1=C/c1ccc([N+](=O)[O-])cc1"
## Output inactive

## Input Tell me the assay call for "FC(F)(F)C1=NC(=NNc2nnc(-c3ccccc3)c(-c3ccccc3)n2)N=C(C(F)(F)F)C1" please.
## Output inactive

## Input Status in this test for COc1ccc2c(c1)CCC1=CC3(CCC12C)SCCS3 (configuration not stated) ?
## Output inactive

## Input Name the outcome recorded for O=C1c2ccccc2C2(O)Nc3c(ccc4ccccc34)C12O (configuration not stated) in the assay.
## Output inactive

## Input Per the assay record, what outcome was assigned to COc1ccc(C2SCC(=O)N2NC(=O)C(C)Oc2ccccc2Cl)cc1 (configuration not stated) ?
## Output inactive

## Input // param item: O=C1C=CC(=O)c2c(O)ccc(O)c21 [NAPHTHAZALIN] ; yields the recorded call
## Output inactive

## Input State the result this test recorded for "COc1ccc(/C=N/c2nc3cc4sc(/N=C/c5ccc(OC)cc5)nc4cc3s2)cc1" .
## Output inactive

## Input Which outcome was assigned to "O=C(CC(=O)c1ccccc1)C(=O)NC12CC3CC(CC(C3)C1)C2" in this test?
## Output inactive

## Input Field: outcome | Entry: "CN(c1ccccc1Cl)S(=O)(=O)c1ccccc1[N+](=O)[O-]"
## Output inactive

## Input Which outcome was entered for the compound "CCSc1nc2n(c(=S)n1)CCN2C" in this test?
## Output inactive

## Input Just curious, what result did "CN(C)/C=C/C=C(/C=N/S(=O)(=O)C(F)(F)F)C1C=CN(S(=O)(=O)C(F)(F)F)C=C1" get here?
## Output inactive

## Input Dear all, I need the recorded test outcome for "Cc1cc(OCc2nc(N)nc(N)c2-c2ccc(Cl)c(Cl)c2)ccc1[N+](=O)[O-]" , thank you.
## Output active

## Input // outcome(item) with item = CC(C)=Cc1cc2c(cc1O)CCC1C2CC[C@@]2(C)C1CC[C@@H]2O (some centres not stated)
## Output inactive
